Data provenance is paper PMC9574867.

# pIC50 values compiled below
- Assay explanation: in vitro
- Settings: human, NHDF cells (normal human dermal fibroblasts)
pIC50: −log10 of the molar value.
Readout: pIC50

{"columns": ["Compound", "Readout", "Endpoint value"],
 "data": [
  ["O=P(O)(O)c1nc2ccc(-c3ccc(Cl)cc3)cc2nc1P(=O)(O)O", "pIC50", "< 3.70"],
  ["O=P(O)(O)c1nc2cc(Cl)c(Cl)cc2nc1P(=O)(O)O", "pIC50", "< 3.70"],
  ["O=C(Nc1ccc(Cl)c(Cl)c1)c1ccc2nc(P(=O)(O)O)c(P(=O)(O)O)nc2c1", "pIC50", "< 4.00"],
  ["CC(=O)Nc1ccccc1OCc1cn(CCNC(=O)C(CC(C)C)C(=O)NO)nn1 (stereo not shown)", "pIC50", "< 3.70"]
]}
